Assay: Identification of proteins required for the processing of the EWS-FLI1 nascent transcript;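 also: robust z of luciferase light less the median z of siRNAs with the same seed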
Details: TC32 Ewing sarcoma NR0B1-luc vs CMV-luc, 48 h; screened at 20 nM (by protocol)
The full ranking holds about 59,000 sequences; the median of the read-out is about -0.00055, and the lowest 2% start at about -2. This is one part of a sample in which the lowest values are shown more often than they occur.
Outcome: Criterion met for seed-corrected z-score of at least -0.5; Criterion not met for anything lower.

AAGUCUGCGAUUAAAGCUG against DTNBP1; Criterion not met
UCAGUUUACCUGAGAAGCC against C22orf39; Criterion not met
UCGGAAUAAAUUGAGCUGC against API5; Criterion not met
UUCUCGAUGCGGUCCAUCC against RILPL1; Criterion met
UUUGGGCUUAGCGGCUUUG against HIST1H1B; Criterion not met
UCUUCACGCAGUAUCUUUC against SLC25A13; Criterion met

* * *

Assay: Identification of proteins required for the processing of the EWS-FLI1 nascent transcript;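 also: robust z of luciferase light less the median z of siRNAs with the same seed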
Conditions: TC32 Ewing sarcoma NR0B1-luc vs CMV-luc, 48 h; screened at 20 nM (by protocol)
Over roughly 59,000 sequences, the read-out has its median near -0.00055; the lowest 2% begin near -2. This is one part of a sample in which the lowest values are shown more often than they occur.
Recorded seed-corrected z-score for the following sequences
reported property: seed-corrected z-score

UUGUUAUGAAUGUACAUCG against TMEM181; -5
UGAGGACAUCGAAGAGGCC against HTR6; 1.21
UAUGCUUUCUUGACAGCCC against KCNAB1; -4.96
UGCUUGACAACUGGCCACC against RPL18AP4; -0.411
UGUGGAUUCGCAUUCGUGC against WNT10B; -0.172
AAGCUUGUAAGUAUAGACG against SF3B3; -2.14
AAGGCAUCCAAGAAGCUCC against KCNK6; 0.0975
UAAUGUACUUGAUCGCAGC against ASCL3; -1.12
AAGGCUCCAAUGAUAAGUG against NRG4; -0.154
UGUGGGAAAGCAGGUAUCU against ZNF815P; -1.11
UGGGAGCAAAGCAUAGUCG against PNMA3; -1.88
UUGUAGUACAUUAACCUUG against ANKRD26; 0.963

* * *

Assay: Identification of proteins required for the processing of the EWS-FLI1 nascent transcript;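 also: robust z of luciferase light less the median z of siRNAs with the same seed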
Settings: TC32 Ewing sarcoma NR0B1-luc vs CMV-luc, 48 h; screened at 20 nM (by protocol)
Whole data set: some 59,000 sequences, median the read-out near -0.00055, cut for the lowest 2% near -2. The sample as a whole holds a higher share of the lowest values than the screen did.
reported property: seed-corrected z-score

UUCUGGUCGAGAGCAUCUG against MAGEB16; -2.42
UUACUUUCUUCAACCAAAG against TRMT6; 0.527
AUCUGAGUGGAAAAAGUCC against AHNAK2; 0.0875
UCAGCUCCAACUGAAGGUC against ID1; 0.724
AAGCUUUAUACUUUCCACC against OR7G3; -0.496
UUUGUAGCAGGUACAGGCC against EPPK1; -0.0968
UUAGCUGCCUGGAUAAGCG against CTNNA2; -0.541
AACCGAUUCAUGACCACCG against AQP5; 0.51
AAACUUCACUGUUACUUGG against LYSMD1; -0.262
UUUCACUCAACCAUCAUUG against HOPX; -0.598
UUCUCGUUGAUGCGGCUCC against ASB1; -2.16
AUUCAUUCUUAUUAAGUGC against GPX5; -0.0754
UCCUCGAAAAUCUCAAAGC against MYO1B; -0.441

* * *

Experiment: Identification of proteins required for the processing of the EWS-FLI1 nascent transcript;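 also: robust z of luciferase light less the median z of siRNAs with the same seed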
Conditions: TC32 Ewing sarcoma NR0B1-luc vs CMV-luc, 48 h; screened at 20 nM (by protocol)
The full ranking holds about 59,000 sequences; the median of the read-out is about -0.00055, and the lowest 2% start at about -2. Many of the other results were omitted from the sample, so the lowest values are more common in it than they were.
reported property: seed-corrected z-score

UACUGAAGUAGUUAGGAUC against INO80C; 1.43
UUGUCCUUCAGGAACACCG against EPB41L1; 0.385
AUCAUAGCAACAGUGCUGC against IGFL1; -2.6
UUUGCUCUCAUUCUCCGCA against SF3B5; -3.03
UAUAAGAAAUGGUUUUGUC against OR6C6; 0.719
UUAGGGAAAGGUCCUCCUU against ELK1P1; 0.104

* * *

Test: Identification of proteins required for the processing of the EWS-FLI1 nascent transcript;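 also: robust z of luciferase light less the median z of siRNAs with the same seed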
Settings: TC32 Ewing sarcoma NR0B1-luc vs CMV-luc (EWS-FLI1 target promoter against control promoter), 48 h; screened at 20 nM (by protocol)
In all, about 59,000 sequences were measured (the read-out: median about -0.00055, lowest 2% from about -2 on). The full list was thinned out, with the lowest values kept by preference.
Recorded seed-corrected z-score for the following sequences
reported property: seed-corrected z-score

UCACUGUGCAUUUCUCCAC against GUCD1; 0.93
UACUCUAUCCGCUGUGCCC against RCC2; -0.853
UCGAUAGUCAUCAAAGAUC against VWC2L; -2.99
AAGCCGAAAAUUGAUCUGC against GLDC; 0.214
UUGUCUAGAAGAAUUGUCG against TTC3; -0.75
UAAGGAUAUUUGCUAAGGC against HMGCLL1; -0.796
AUUCUGAUCUAGGCGAUGG against C5orf15; -2.22
UGCUGUAUAAUAUCCUUGC against GALNT3; 0.503
UACAAUUACAUCAUCGUCC against GLT8D2; -0.139
UGUCCAUAAACAGUAAAGG against ZNF30; -2.51
UACUGAACACUGGAAAUUC against FGFBP2; 1.53
UCCGUUUUCCACGUAGUGC against FRMD1; -0.836
UUCGCUGUCACUGUGGUUG against FAM134C; -1.48
AAUGUGAUCAAAAAUAGCC against NAT2; 0.2
UCCUGCUUCAGUAAAUCUC against MRPL24; -2.37
UCUUGCAACAGAGCCCUGA against TESK1; -0.681
UAGGAUACAUUGCUGAUGC against CASC1; -0.353
AUUCUCACCAGACAUCCUG against KRT74; 1.12
UCCUUGACCAGAAAUCUCA against TRIM31; -0.472
UCAGUUUCCUCGCCGACUC against SH3BP5L; -2.66
UGAUGGUAGAGUUCCAGUG against MYBL2; -0.637
UAAUCGAAAAACUUCAAUG against CLN5; -0.147
UUUUGAACCAGGGUAGUUC against GNA15; 0.0907
UAAGUCAGGAUAUUCGCUC against CRELD2; -1.22
UCUUGAUAAGAGACCAGCU against PRR3; 0.373
UCCUCGUUCAGCACCCUUC against DNAJB13; -0.18
UUUAUCCUCAAAACUCUCC against C6orf10; 0.952
UCUGGAAUAACGGUGCAGC against C15orf62; -1.54
UAACUCGAAAGUGAACUUC against MYOZ3; 0.0654
UAGUGAUAGAUACUGUUCC against HGF; -0.568
UUCCCUCUUUGGGUCUUCC against SNX11; 0.0123
ACUAGAACAAUCUGCAUCC against ZBTB1; 0.122
UCUUUAUCAAGUUUACAGG against LANCL3; -0.0126
ACUGCUUUCCUUAAAAUCC against CCDC40; -3.74
UAUAGGAGCUCUAGGAUCU against CSTF2T; -0.439
UUGAGUAAGAACUUUAUCC against SMAD1; -2.45
UGGGUAUGUAGUAAUCUCG against ADGB; -3.05
UUGCAUGCAAUGGUGAGGC against S100A10; -1.4
ACUGUUGUCACUGCGGUGG against GPR20; -0.419
AAUGGGAAAAGAAUUGCUU against IGFBP7-AS1; 0.0752
UGUCAAGUCGGGUUCACCC against CCDC97; -0.229
UCAGGGUGCAGCAUGAAUC against LOC338667; 0.765
UGCCUGUAAAGCCGUCUCC against LINC00705; -0.731
UAUUGGAUCCGGUGCAACC against SYPL2; -0.246
AUACUGCCGAUAUAUCAGC against AP4S1; -0.442
UUCUUUUGUCCAUACAAUC against TAS2R45; -2.34
UAUCGUGAAACAGACUUCC against SND1; 0.0523
UAUGUGACGAGGGUCAUGC against THBS1; -2.07
AAUCAGUCAGGUAAAUGCC against ENTPD1; 0.248
UGCUGGAUCAGGGAGAUAG against TRPM2; -2.19
UAUGGAAAAAUUAAUCUGU against RAC1; -0.118
AUAGCGAUUAUUCUCACAG against PDHA1; 0.0331
